Biological target: UniProtKB Q13464
Sequence (Q13464 whole entry): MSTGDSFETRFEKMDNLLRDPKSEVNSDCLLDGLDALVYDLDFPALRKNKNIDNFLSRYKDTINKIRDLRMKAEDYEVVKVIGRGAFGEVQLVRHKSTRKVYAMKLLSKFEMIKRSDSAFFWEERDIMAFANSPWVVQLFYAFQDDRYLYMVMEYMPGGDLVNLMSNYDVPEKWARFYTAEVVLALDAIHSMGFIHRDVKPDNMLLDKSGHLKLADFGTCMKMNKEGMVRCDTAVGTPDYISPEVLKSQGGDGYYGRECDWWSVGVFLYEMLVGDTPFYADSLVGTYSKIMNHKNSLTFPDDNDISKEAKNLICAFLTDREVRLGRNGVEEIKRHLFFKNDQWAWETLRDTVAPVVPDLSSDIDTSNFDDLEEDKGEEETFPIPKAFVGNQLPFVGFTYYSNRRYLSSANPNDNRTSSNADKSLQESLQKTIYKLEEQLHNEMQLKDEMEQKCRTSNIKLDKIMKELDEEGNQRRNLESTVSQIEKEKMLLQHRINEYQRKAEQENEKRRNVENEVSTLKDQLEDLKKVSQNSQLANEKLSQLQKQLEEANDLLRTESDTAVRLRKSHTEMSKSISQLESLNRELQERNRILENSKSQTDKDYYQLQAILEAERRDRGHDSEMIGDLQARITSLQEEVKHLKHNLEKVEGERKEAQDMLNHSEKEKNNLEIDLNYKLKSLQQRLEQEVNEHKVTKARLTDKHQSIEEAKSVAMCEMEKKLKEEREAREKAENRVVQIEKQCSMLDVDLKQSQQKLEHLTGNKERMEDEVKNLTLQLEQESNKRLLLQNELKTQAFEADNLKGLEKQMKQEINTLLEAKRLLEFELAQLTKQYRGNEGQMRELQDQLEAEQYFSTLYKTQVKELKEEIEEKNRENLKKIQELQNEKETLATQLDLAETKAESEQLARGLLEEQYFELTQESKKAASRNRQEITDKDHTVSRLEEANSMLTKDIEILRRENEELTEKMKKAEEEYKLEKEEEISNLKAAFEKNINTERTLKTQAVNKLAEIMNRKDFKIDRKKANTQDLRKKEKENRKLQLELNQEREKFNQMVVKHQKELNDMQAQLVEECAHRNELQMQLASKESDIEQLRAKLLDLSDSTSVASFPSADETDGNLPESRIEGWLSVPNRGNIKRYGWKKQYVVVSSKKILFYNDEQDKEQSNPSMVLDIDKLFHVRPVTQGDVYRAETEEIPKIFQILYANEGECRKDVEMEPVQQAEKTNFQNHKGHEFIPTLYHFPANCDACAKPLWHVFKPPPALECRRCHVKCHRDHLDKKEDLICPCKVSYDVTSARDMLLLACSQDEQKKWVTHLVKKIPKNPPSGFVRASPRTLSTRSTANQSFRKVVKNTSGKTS
metric name: IC50

### Prompt I'd like to know its IC50. The compound in question is C[C@H]1CN(c2c(NC(=O)c3ccc(F)c(-c4c(F)cccc4F)n3)cnc3c2CC[C@H]3O)C[C@@H](N)[C@@H]1O.O=P(O)(O)O
### Response > 20 µM

* * *

Target: UniProt Q05655
Sequence (Q05655 whole entry): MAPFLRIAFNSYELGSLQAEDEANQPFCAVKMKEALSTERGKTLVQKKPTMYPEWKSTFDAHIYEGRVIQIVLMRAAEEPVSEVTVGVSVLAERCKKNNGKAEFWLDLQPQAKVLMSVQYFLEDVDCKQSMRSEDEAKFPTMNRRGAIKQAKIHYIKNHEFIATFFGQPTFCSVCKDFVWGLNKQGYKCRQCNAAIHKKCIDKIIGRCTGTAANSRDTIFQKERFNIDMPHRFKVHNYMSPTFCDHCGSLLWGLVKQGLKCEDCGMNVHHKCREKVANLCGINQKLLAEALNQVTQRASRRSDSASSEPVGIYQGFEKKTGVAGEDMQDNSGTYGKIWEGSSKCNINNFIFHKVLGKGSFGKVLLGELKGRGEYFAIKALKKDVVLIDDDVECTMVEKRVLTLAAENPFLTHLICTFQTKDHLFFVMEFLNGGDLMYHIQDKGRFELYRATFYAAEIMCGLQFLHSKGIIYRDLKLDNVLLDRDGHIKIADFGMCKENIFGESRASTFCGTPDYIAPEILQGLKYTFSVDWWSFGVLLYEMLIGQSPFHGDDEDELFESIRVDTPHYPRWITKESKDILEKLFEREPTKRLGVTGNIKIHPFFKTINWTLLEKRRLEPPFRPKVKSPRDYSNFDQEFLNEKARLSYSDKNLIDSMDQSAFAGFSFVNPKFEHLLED
pIC50: −log10 of the molar value.
metric name: pIC50

### Prompt Quick one: pIC50 of C[C@H]1CN(c2c(NC(=O)c3ccc(F)c(-c4c(F)cccc4F)n3)cnc3c2CC[C@H]3O)C[C@@H](N)[C@@H]1O.O=P(O)(O)O [INCB053914] ?
### Response < 4.70

* * *

Molecular target: AXL (Homo sapiens)
Sequence (P30530 26-894): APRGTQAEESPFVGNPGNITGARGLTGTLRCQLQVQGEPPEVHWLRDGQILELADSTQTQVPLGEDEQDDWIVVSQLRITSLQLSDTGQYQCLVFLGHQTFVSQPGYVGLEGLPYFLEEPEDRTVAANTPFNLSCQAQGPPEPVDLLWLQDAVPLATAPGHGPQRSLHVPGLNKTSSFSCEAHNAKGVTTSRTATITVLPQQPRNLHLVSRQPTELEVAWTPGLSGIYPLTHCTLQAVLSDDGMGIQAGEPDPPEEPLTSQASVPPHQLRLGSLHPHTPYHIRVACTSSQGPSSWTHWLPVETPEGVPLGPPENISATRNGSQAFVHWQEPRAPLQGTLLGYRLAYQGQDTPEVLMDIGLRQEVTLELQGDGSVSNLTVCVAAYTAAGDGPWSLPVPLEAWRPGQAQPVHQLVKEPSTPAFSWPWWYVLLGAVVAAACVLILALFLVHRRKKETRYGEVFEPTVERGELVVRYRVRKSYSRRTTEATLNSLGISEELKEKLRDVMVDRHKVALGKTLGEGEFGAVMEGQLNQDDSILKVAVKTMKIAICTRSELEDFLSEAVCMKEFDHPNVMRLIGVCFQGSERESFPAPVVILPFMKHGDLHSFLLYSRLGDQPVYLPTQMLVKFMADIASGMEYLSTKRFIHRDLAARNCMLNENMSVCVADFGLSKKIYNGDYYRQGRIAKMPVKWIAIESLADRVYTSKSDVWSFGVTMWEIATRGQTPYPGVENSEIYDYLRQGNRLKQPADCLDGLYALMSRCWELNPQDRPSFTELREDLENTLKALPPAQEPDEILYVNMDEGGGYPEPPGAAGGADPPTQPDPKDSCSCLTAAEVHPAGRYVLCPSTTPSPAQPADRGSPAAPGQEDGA
pIC50: −log10 of the molar value.
metric name: pIC50

### Prompt Dear colleague, I am looking for the recorded pIC50 of the following compound: C[C@H]1CN(c2c(NC(=O)c3ccc(F)c(-c4c(F)cccc4F)n3)cnc3c2CC[C@H]3O)C[C@@H](N)[C@@H]1O.O=P(O)(O)O
### Response < 4.70

* * *

Molecular target: RSK2 (Homo sapiens)
Sequence (P51812 whole entry): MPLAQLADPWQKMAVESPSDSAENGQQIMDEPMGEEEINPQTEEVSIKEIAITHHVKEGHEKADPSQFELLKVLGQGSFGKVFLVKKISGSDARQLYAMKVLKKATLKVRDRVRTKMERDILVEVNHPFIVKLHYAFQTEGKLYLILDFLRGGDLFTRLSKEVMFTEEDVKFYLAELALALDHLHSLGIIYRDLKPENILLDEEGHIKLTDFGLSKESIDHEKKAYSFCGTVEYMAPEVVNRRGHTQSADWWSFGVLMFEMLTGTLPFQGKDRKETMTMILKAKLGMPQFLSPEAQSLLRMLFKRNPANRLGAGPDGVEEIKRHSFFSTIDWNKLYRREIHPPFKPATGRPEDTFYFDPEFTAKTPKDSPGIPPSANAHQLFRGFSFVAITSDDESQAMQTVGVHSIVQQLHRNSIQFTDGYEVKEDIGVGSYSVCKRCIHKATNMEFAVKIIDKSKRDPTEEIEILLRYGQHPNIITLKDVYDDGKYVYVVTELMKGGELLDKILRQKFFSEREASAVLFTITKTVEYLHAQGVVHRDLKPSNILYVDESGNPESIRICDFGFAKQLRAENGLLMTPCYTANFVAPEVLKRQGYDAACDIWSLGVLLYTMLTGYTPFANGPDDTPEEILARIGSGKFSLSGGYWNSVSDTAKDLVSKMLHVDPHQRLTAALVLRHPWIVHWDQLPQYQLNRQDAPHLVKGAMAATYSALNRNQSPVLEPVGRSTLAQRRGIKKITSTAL
Assay: Kinase selectivity panel
Type: biochemical
Conditions: as given in the text
metric name: IC50 (µM)
Provide the reading as a plain figure in µM.

### Prompt Hello, I am looking for reported IC50 with RSK2 (Homo sapiens) for C[C@H]1CN(c2c(NC(=O)c3ccc(F)c(-c4c(F)cccc4F)n3)cnc3c2CC[C@H]3O)C[C@@H](N)[C@@H]1O.O=P(O)(O)O [INCB053914] . Could you help?
### Response 7.1

* * *

Biological target: MAP3K8 (Homo sapiens)
Sequence (P41279 whole entry): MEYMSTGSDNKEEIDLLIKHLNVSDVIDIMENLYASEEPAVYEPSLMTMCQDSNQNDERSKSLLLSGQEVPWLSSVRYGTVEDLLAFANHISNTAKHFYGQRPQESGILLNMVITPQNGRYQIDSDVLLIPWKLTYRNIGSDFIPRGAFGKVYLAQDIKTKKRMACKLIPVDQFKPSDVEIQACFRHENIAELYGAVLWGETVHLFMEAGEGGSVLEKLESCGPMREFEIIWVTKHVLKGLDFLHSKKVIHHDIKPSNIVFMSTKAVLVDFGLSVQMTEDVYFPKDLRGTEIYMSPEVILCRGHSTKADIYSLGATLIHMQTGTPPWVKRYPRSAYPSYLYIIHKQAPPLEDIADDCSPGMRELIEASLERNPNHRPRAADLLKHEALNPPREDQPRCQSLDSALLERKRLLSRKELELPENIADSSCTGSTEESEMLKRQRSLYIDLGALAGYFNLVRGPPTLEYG
pIC50: −log10 of the molar value.
metric name: pIC50

### Prompt Record C[C@H]1CN(c2c(NC(=O)c3ccc(F)c(-c4c(F)cccc4F)n3)cnc3c2CC[C@H]3O)C[C@@H](N)[C@@H]1O.O=P(O)(O)O [INCB053914] : what is its pIC50 with MAP3K8 (Homo sapiens)?
### Response < 4.70

* * *

System: phosphorylation of BAD in MOLM-16 cells
Assay: pBAD S112 ELISA in cells
Format: cell-based
Settings: Homo sapiens, MOLM16, 2.5 hours, RPMI + 10% FBS, read-out: mean (± SD) IC50, pBAD inhibition
metric name: IC50

### Prompt Quick one: IC50 for C[C@H]1CN(c2c(NC(=O)c3ccc(F)c(-c4c(F)cccc4F)n3)cnc3c2CC[C@H]3O)C[C@@H](N)[C@@H]1O.O=P(O)(O)O ?
### Response 4 nM

* * *

Target: PIM1 (Homo sapiens, UniProt P11309)
Sequence (P11309 whole entry): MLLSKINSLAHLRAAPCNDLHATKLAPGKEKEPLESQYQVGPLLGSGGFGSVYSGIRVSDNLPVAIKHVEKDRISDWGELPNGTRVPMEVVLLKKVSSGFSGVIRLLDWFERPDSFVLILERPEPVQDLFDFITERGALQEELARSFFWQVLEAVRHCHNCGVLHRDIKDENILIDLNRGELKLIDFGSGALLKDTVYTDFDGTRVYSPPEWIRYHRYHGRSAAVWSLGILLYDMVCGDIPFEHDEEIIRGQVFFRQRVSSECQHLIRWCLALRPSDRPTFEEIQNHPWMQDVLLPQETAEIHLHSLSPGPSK
Experiment: PIM1 AlphaScreen kinase assay
Assay type: biochemical
Details: 1 mM ATP; read-out: Mean (SD) IC50
metric name: pIC50
A value of pIC50 is the negative decimal logarithm of a concentration given in moles per litre.

### Prompt Please report the recorded pIC50 for C[C@H]1CN(c2c(NC(=O)c3ccc(F)c(-c4c(F)cccc4F)n3)cnc3c2CC[C@H]3O)C[C@@H](N)[C@@H]1O.O=P(O)(O)O .
### Response 9.62

* * *

Target chain: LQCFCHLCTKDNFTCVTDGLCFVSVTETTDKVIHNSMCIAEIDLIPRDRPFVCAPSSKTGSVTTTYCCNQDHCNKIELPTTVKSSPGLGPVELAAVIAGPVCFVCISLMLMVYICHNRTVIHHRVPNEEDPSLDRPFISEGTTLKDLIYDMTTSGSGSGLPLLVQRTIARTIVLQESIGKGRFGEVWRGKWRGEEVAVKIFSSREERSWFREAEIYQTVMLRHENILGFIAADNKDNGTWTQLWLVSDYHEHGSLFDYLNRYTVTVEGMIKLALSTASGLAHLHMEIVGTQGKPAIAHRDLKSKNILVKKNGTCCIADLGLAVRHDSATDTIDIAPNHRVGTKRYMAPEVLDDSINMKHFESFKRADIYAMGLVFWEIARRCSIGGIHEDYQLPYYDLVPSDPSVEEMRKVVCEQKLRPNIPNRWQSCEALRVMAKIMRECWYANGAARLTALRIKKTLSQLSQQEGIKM
pIC50: −log10 of the molar value.
metric name: pIC50

### Prompt Value lookup for pIC50; key = C[C@H]1CN(c2c(NC(=O)c3ccc(F)c(-c4c(F)cccc4F)n3)cnc3c2CC[C@H]3O)C[C@@H](N)[C@@H]1O.O=P(O)(O)O
### Response < 4.70
